Molecular target: T1, hPRLR.mFc (soluble dimeric human PRLR) (Homo sapiens, UniProt P16471)
T1 construct: dimeric (hPRLR.mFc)
T1 sequence (P16471 with tags, fused parts or gaps): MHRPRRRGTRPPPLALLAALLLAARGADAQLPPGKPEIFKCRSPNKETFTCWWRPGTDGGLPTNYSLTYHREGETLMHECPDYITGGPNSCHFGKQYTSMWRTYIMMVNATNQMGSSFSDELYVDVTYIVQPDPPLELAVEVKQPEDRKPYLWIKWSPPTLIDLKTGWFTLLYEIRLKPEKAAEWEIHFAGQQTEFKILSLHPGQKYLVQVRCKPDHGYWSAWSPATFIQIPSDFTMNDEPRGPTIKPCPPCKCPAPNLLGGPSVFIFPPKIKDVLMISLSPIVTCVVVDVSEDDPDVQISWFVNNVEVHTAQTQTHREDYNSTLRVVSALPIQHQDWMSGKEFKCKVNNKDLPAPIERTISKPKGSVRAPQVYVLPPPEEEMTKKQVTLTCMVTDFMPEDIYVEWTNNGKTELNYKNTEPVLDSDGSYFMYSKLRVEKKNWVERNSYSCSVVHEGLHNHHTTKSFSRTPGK
Test: Surface plasmon resonance (Biacore T200), mAb-capture format
Format: binding
Settings: 37° C., antibody-capture format, analyte hPRLR.mFc
Experimental: Antibodies, expressed as human IgG1 Fc “[…]” designations), were captured onto an anti-human Fc sensor surface (mAb-capture format), and soluble monomeric (hPRLR.mmh; SEQ ID NO:401, or macaca fascicularis (mf) PRLR.mmh; SEQ ID NO:403) or dimeric (hPRLR.mFc; SEQ ID NO:402) PRLR protein was injected over the sensor surface. Measurements were conducted on a T200 Biacore instrument. […]
pKd: −log10 of the molar value.
measure: pKd

>>> measured_number("H1H6959N2: human IgG1 Fc form of H2M6959N2; anti-PRLR; HCVR/LCVR SEQ ID NOs 306/314 (antibody, V domains shown, human IgG1 Fc) VH: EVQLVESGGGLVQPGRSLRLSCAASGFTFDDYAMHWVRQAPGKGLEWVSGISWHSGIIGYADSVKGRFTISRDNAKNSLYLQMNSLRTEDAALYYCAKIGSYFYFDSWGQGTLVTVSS VL: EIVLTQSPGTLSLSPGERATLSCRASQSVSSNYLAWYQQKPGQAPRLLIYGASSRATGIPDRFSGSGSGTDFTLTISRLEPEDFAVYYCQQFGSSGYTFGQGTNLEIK")
8.35
